// provenance: ChEMBL document CHEMBL1158165

Tested on: Raji
Assay: Inhibition of 12-O-tetradecanoylphorbol-13-acetate induced EBV-early antigen activation in human Raji cells
Assay type: cell-based
Details: human gammaherpesvirus 4
Task for the reader: assign each of the following molecules its reported logIC50.

Give the reported value of logIC50 for this record: `CC(=O)Oc1cc(C)cc2c1C(=O)c1c(OC(C)=O)cc(O)cc1C2=O`
2.7

Give the reported value of logIC50 for this record: `Cc1ccc2c(c1)C(=O)c1ccccc1C2=O`
2.66

Give the reported value of logIC50 for this record: `Cc1cc2c(c(O)c1-c1c(C)cc3c(c1O)C(=O)c1c(O)cccc1C3=O)C(=O)c1c(O)cccc1C2=O`
2.86

Give the reported value of logIC50 for this record: `Cc1cc(O)c2c(c1)C(=O)c1cc(O)cc(O)c1C2=O`
2.48

Give the reported value of logIC50 for this record: `O=C1c2cccc(O)c2C(=O)c2c1cc(CO)c(-c1c(CO)cc3c(c1O)C(=O)c1c(O)cccc1C3=O)c2O`
2.78

Give the reported value of logIC50 for this record: `Cc1cc(O)c2c(c1)C(=O)c1cc(CO)c(-c3c(O)cc4c(c3O)C(=O)c3c(O)cccc3C4=O)c(O)c1C2=O`
2.8

Give the reported value of logIC50 for this record: `COc1cc2c(c(O)c1C)C(=O)c1c(O)cc(C)cc1C2=O`
2.48

Give the reported value of logIC50 for this record: `COc1cc(OC)c2c(c1)C(=O)c1cc(C)cc(O)c1C2=O`
2.5

Give the reported value of logIC50 for this record: `COc1cc(O)cc2c1C(=O)c1c(O)cc(C)cc1C2=O`
2.52

Give the reported value of logIC50 for this record: `CC(=O)Oc1cc(OC(C)=O)c2c(c1)C(=O)c1cc(C(=O)O)cc(OC(C)=O)c1C2=O`
2.66

Give the reported value of logIC50 for this record: `COc1cc(O)c2c(c1)C(=O)c1cc(C)cc(O)c1C2=O`
2.5

Give the reported value of logIC50 for this record: `CC(=O)Oc1cc(O)cc2c1C(=O)c1c(O)cc(C)cc1C2=O`
2.69

* * *

Test system: Raji
Assay: Inhibition of 12-O-tetradecanoylphorbol-13-acetate induced EBV-early antigen activation in human Raji cells
Assay type: cell-based
Details: human gammaherpesvirus 4
measured-endpoint: logIC50
Just the number, please, no unit attached.

Give the reported value of logIC50 for this record: `COc1cc2c(c(O)c1OC)C(=O)c1c(cc(C)c(O)c1OC)C2=O`
2.73

Give the reported value of logIC50 for this record: `COc1c(O)c(C)cc2c1C(=O)c1c(O)cccc1C2=O`
2.55

Give the reported value of logIC50 for this record: `Cc1cc(O)c2c(c1)C(=O)c1cc(O)c(-c3c(C)cc4c(c3O)C(=O)c3c(O)cccc3C4=O)c(O)c1C2=O`
2.83

Give the reported value of logIC50 for this record: `Cc1cc(O)c2c(c1)C(=O)c1cccc(O)c1C2=O`
2.68

Give the reported value of logIC50 for this record: `Cc1ccc2c(c1O)C(=O)c1ccccc1C2=O`
2.72

Give the reported value of logIC50 for this record: `COc1cc(OC)c2c(c1)C(=O)c1cc(C)cc(OC)c1C2=O`
2.41

Give the reported value of logIC50 for this record: `COc1c(O)cc2c(c1O)C(=O)c1c(cc(C)c(O)c1OC)C2=O`
2.72

Give the reported value of logIC50 for this record: `CCc1ccc2c(c1)C(=O)c1ccccc1C2=O`
2.7

Give the reported value of logIC50 for this record: `COc1cc(C)cc2c1C(=O)c1c(O)cc(O)cc1C2=O`
2.49

Give the reported value of logIC50 for this record: `O=C1c2cccc(O)c2C(=O)c2c(O)cccc21`
2.78

Give the reported value of logIC50 for this record: `COc1cc2c(c(OC)c1OC)C(=O)c1c(cc(C)c(O)c1OC)C2=O`
2.73

Give the reported value of logIC50 for this record: `O=C1c2ccccc2C(=O)c2c(O)cccc21`
2.77

Give the reported value of logIC50 for this record: `COc1cc2c(c(OC)c1O)C(=O)c1c(ccc(C)c1O)C2=O`
2.55

Give the reported value of logIC50 for this record: `COc1cc(C)cc2c1C(=O)c1c(O)cccc1C2=O`
2.82

Give the reported value of logIC50 for this record: `CC(=O)Oc1cc(OC(C)=O)c2c(c1)C(=O)c1cc(C)cc(OC(C)=O)c1C2=O`
2.67

Give the reported value of logIC50 for this record: `O=C1c2ccccc2C(=O)c2ccccc21`
3.04

Give the reported value of logIC50 for this record: `O=C1c2cccc(O)c2C(=O)c2c(O)cc(CO)cc21`
2.66

Give the reported value of logIC50 for this record: `Cc1cc2c(c(O)c1-c1c(C)cc3c(c1O)C(=O)c1c(O)cc(O)cc1C3=O)C(=O)c1c(O)cccc1C2=O`
2.8

Give the reported value of logIC50 for this record: `COc1cc(C)cc2c1C(=O)c1c(OC)cc(O)cc1C2=O`
2.45

Give the reported value of logIC50 for this record: `O=C1c2ccc(O)cc2C(=O)c2ccc(O)cc21`
2.88

Give the reported value of logIC50 for this record: `Cc1cc2c(c(O)c1-c1c(C)cc3c(c1O)C(=O)c1c(O)cc(O)cc1C3=O)C(=O)c1c(O)cc(O)cc1C2=O`
2.7

Give the reported value of logIC50 for this record: `COc1cc(O)c2c(c1)C(=O)c1cc(C)cc(OC)c1C2=O`
2.43
